Biological target: F508delCFTR (Homo sapiens, UniProt P13569, DEL508-508)
Construct: expressed in transfected cells; host or cells: CFBE41o- human lung-derived epithelial cells (CFBE4lo-F508delCFTR-HRP), doxycycline-inducible
Sequence (P13569 with tags, fused parts or gaps DEL508-508): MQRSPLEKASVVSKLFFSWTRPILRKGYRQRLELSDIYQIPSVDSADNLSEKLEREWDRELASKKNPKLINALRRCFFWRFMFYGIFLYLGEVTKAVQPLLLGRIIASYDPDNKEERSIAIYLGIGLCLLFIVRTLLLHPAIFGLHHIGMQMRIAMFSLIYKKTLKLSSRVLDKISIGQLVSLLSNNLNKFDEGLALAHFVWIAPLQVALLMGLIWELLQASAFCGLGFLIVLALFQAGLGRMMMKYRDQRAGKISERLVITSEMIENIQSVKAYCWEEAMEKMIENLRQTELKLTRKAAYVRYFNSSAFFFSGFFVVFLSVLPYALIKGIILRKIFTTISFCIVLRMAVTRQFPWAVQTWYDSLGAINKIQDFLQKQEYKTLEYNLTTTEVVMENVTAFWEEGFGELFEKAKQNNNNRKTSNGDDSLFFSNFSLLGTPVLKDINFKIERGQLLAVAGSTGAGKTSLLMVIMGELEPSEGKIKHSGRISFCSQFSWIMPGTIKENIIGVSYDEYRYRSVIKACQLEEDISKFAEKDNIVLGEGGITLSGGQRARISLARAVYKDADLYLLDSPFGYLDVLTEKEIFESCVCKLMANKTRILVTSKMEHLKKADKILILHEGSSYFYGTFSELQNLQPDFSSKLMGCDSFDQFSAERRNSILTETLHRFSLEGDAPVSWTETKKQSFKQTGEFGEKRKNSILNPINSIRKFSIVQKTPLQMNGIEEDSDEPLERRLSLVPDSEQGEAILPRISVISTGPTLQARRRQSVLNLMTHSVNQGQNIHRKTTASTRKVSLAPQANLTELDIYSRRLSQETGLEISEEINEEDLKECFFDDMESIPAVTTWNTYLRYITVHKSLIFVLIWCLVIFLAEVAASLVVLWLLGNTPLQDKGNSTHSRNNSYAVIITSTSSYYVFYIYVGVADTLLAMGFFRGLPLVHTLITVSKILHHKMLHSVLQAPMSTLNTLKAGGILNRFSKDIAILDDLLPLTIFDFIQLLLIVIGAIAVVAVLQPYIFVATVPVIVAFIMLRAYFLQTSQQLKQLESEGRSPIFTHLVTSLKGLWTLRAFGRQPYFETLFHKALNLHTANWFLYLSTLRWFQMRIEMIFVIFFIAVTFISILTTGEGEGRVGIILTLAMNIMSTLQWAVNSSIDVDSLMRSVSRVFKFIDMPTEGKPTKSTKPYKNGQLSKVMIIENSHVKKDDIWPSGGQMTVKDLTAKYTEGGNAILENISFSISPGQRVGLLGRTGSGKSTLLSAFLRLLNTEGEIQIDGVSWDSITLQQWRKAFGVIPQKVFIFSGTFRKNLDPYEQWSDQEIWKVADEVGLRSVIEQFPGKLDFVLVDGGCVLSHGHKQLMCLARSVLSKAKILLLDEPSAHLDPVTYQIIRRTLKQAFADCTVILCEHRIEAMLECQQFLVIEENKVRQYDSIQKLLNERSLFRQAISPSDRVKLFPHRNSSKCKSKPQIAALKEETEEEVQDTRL
Assay: Cell Surface Expression-Horse Radish Peroxidase (CSE-HRP) Assay
Format: cell-based
Details: test compound without co-corrector; read-out: EC50 (without co-corrector)
Listing of recorded EC50 by entry.
Readout kind: EC50

>  <Compound>
COc1ncc(C(F)(F)F)cc1CN[C@H]1[C@H](C(C)(C)C)[C@@H](C(=O)O)N(C(=O)[C@@H]2CCCCO2)[C@H]1c1cccnc1N(C)C

>  <Readout kind>
EC50

>  <Result>
1000 to 10000 nM

$$$$
>  <Compound>
CC(C)(C)[C@@H]1[C@@H](Nc2cc(C(F)(F)F)cc(=O)[nH]2)[C@@H](c2ccccc2)N(C(=O)C2CCCCC2)[C@H]1C(=O)O (racemic)

>  <Readout kind>
EC50

>  <Result>
> 10000 nM

$$$$
>  <Compound>
COc1ccc(-c2ccccc2F)cc1CN[C@H]1[C@H](C(C)(C)C)[C@@H](C(=O)O)N(C(=O)C2CCCCC2)[C@H]1c1ccccc1

>  <Readout kind>
EC50

>  <Result>
< 1000 nM

$$$$
>  <Compound>
CCCC1(O)CCC(C(=O)N2C(C(=O)O)C(C(C)(C)C)C(NCc3cc(C(C)(C)C)ccc3OC)C2c2ccccc2)CC1 (centres unmarked)

>  <Readout kind>
EC50

>  <Result>
1000 to 10000 nM

$$$$
>  <Compound>
COc1ccc(S(F)(F)(F)(F)F)cc1CN[C@H]1[C@H](C(C)(C)C)[C@@H](C(=O)O)N(C(=O)C2CCCCC2)[C@H]1c1ccccc1

>  <Readout kind>
EC50

>  <Result>
< 1000 nM

$$$$
>  <Compound>
COc1ccc(SC(F)(F)F)cc1CN[C@H]1[C@H](C(C)(C)C)[C@@H](C(=O)O)N(C(=O)C2CCCCC2)[C@H]1c1cccnc1OC

>  <Readout kind>
EC50

>  <Result>
1000 to 10000 nM

$$$$
>  <Compound>
COc1ccc(C(C)(C)C)cc1CN[C@H]1[C@H](C(C)(C)C)[C@@H](C(=O)O)N(C(=O)c2c(C)nn3c2CCCC3)[C@H]1c1ccccc1

>  <Readout kind>
EC50

>  <Result>
1000 to 10000 nM

$$$$
>  <Compound>
COc1nc(C(C)(C)C)ccc1CN[C@H]1[C@H](C(C)(C)C)[C@@H](C(=O)O)N(C(=O)[C@H]2CCCCO2)[C@H]1c1cccnc1N(C)C

>  <Readout kind>
EC50

>  <Result>
1000 to 10000 nM

$$$$

* * *

Listing of recorded Emax by entry.
Target: F508delCFTR (Homo sapiens, UniProt P13569, DEL508-508)
Construct: expressed in transfected cells; host or cells: CFBE41o- human lung-derived epithelial cells (CFBE4lo-F508delCFTR-HRP), doxycycline-inducible
Experiment: Cell Surface Expression-Horse Radish Peroxidase (CSE-HRP) Assay;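 for Maximum % activity (without co-corrector): percent of the 2 µM on-plate positive control corrector response above DMSO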
Type: cell-based
Settings: without co-corrector; maximum at any tested concentration, normalized to on-plate positive control; read-out: Maximum % activity (without co-corrector)

>  <Compound>
COc1cc(N[C@H]2[C@H](C(C)(C)C)[C@@H](C(=O)O)N(C(=O)C3CCCCC3)[C@H]2c2ccccc2)nc(OC)n1 (racemic) [Example I-9]

>  <Emax>
< 100%

$$$$
>  <Compound>
COc1ccc(-c2ccnnc2)cc1CN[C@H]1[C@H](C(C)(C)C)[C@@H](C(=O)O)N(C(=O)C2CCCCC2)[C@H]1c1ccccc1 [Example I-125]

>  <Emax>
< 100%

$$$$
>  <Compound>
COc1ncc(C(F)(F)F)cc1CN[C@H]1[C@H](C(C)(C)C)[C@@H](C(=O)O)N(C(=O)C2CCCCC2)[C@H]1c1ccccc1OC(F)F [Example 14]

>  <Emax>
< 100%

$$$$
>  <Compound>
COc1ccc(C(C)(C)C)cc1CN[C@H]1[C@H](C(C)(C)C)[C@@H](C(=O)O)N(C(=O)[C@@H]2OCC[C@@H]2c2ccccc2)[C@H]1c1ccccc1 (relative stereo) [Example I-178]

>  <Emax>
100 to 200%

$$$$
>  <Compound>
COc1ccc(C(F)(F)F)cc1CN[C@H]1[C@H](C(C)(C)C)[C@@H](C(=O)O)N(C(=O)[C@@H]2CCC[C@@H](OC)C2)[C@H]1c1ccccc1 [Example I-59]

>  <Emax>
> 200%

$$$$
>  <Compound>
Cc1cc(C(F)(F)F)cc(N[C@H]2[C@H](C(C)(C)C)[C@@H](C(=O)O)N(C(=O)C3CCCCC3)[C@H]2c2ccccc2)n1 [Example 4]

>  <Emax>
< 100%

$$$$
>  <Compound>
COc1cccc([C@@H]2[C@H](NCc3ccccc3OC(F)F)[C@@H](C(C)(C)C)[C@H](C(=O)O)N2C(=O)C2CCCCO2)n1 (mixture of isomers) [Example I-18]

>  <Emax>
< 100%

$$$$
>  <Compound>
COc1ccc(C23CC(C2)C3)cc1CN[C@H]1[C@H](C(C)(C)C)[C@@H](C(=O)O)N(C(=O)OC(C)C)[C@H]1c1ccccc1 [Example I-210]

>  <Emax>
> 200%

$$$$
>  <Compound>
COc1ncc(C2CCCCC2)cc1CN[C@H]1[C@H](C(C)(C)C)[C@@H](C(=O)O)N(C(=O)C2CCCCC2)[C@H]1c1ccccc1 [Example I-72]

>  <Emax>
> 200%

$$$$
>  <Compound>
COc1ccc(C2(C)CCC2)cc1CN[C@H]1[C@H](C(C)(C)C)[C@@H](C(=O)O)N(C(=O)[C@@H]2CCCCO2)[C@H]1c1cccnc1N(C)C [Example 60]

>  <Emax>
> 200%

$$$$
>  <Compound>
CC(C)(C)[C@H]1[C@H](NCc2cc3ccccc3o2)[C@H](c2ccccc2)N(C(=O)C2CCCCC2)[C@@H]1C(=O)O [Example I-46]

>  <Emax>
< 100%

$$$$

Provenance of the data: patent US20180099931A1
